// provenance: PubChem BioAssay (NCATS)

- TEST_PROTOCOL: BET inhibitor-based combinations targeting novel dependencies in MECOM-rearranged (r) AML: HNT-34 cell line (AID 2202234); further: nearly all actives have a fitted effect of over 35% in size
- CONDITION_INFO: HNT-34 AML viability, CellTiter-Glo luminescence, 48 h; series mostly up to 46 µM
Inconclusive results are not listed. Activity calls are given as the source filed them. The call rests on the fitted dose curve; in most records, active means well fitted inhibition curve with a large enough effect; inconclusive means small, poorly fitted or top-dose-only effect; inactive means no such curve, though single readings can be large or run the other way.
Select the correct class. Options are t = active, f = inactive and nothing else.

COMPOUND	LABEL_CLASS
CNNCc1ccc(C(=O)NC(C)C)cc1	f

Qu. Could you please tell me the result logged for CCOc1ccccc1N=Nc1c(C)[nH]n(-c2nc(-c3ccccc3)cs2)c1=O in this assay?
Ans. f

Qu. Could you please tell me the result logged for C[C@]12CC[C@H](O)CC1=CCC1C2CC[C@]2(C)C(n3cnc4ccccc43)=CCC12 (stereo not given in full) in this assay?
Ans. f

Qu. Could you please tell me the result logged for CC/C(=C(\c1ccccc1)c1ccc(OCCN(C)C)cc1)c1ccccc1 in this assay?
Ans. t

Qu. Could you please tell me the result logged for O=C1CCCC(=O)C1C(=O)c1ccc(C(F)(F)F)cc1[N+](=O)[O-] in this assay?
Ans. f
